# testTarget: T1, human IL4 (human, UniProt P05112 25-153, biotinylated in the SPR and competition assays (sites not given))
# T1 sequence: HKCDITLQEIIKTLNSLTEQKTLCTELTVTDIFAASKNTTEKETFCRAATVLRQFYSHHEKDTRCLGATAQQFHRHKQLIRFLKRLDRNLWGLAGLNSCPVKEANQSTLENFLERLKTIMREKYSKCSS
# experimentalProtocol: cell-based or functional assay
Below, each entry is listed alongside its reported A549 TARC Inhibition IC50.

>  <binder>
C06_44F6 (designed binder, ankyrin repeat protein; His-tagged, IMAC-purified) DLGKELLEAARAGQDDEVHILMANGADVNALDDSGYTPLHLAAEDGHLEIVEVLLKHGADVNAMDNIGNTSLHLAAFDGHLEIVEVLLKYGADVNAVDLAGVTPLHVAAFYGHLEIVEVLLKHGADVNAQDKFGKTAFDISIDNGNEDLAEILQKLN

>  <A549 TARC Inhibition IC50 (nM)>
0.142

$$$$
>  <binder>
C06_28E5 (designed binder, ankyrin repeat protein; His-tagged, IMAC-purified; also called benchmark AR protein) DLGKKLLEAARAGQDDEVRILMANGADVNAADDSGITPLHLAAEDGHLEIVEVLLKYGADVNAQDNLGDTPLHLAAWTGHLEIVEVLLKNGADVNAYDISGITPLHLAAFYGHLEIVEVLLKHGADVNAQDKFGKTAFDISIDNGNEDLAEILQKLN

>  <A549 TARC Inhibition IC50 (nM)>
0.174

$$$$
>  <binder>
C06_20B8 (designed binder, ankyrin repeat protein; His-tagged, IMAC-purified) DLGKKLLEAASAGQDDEVHILMANGADVNAVDHDGFTPLHLAAADGHLEIVEVLLKHGADVNADDNFGWTPLHLAAFFGHLEIVEVLLKHGADVNAKDQTGLTPLHLAAVDGHLEIVEVLLKHGADVNAQDKFGKTAFDISIDNGNEDLAEILQKLN

>  <A549 TARC Inhibition IC50 (nM)>
0.288

$$$$
